So I've got a bunch of compounds here, and I need their viability, T/C values.
- Tested on: 156681-154-R-J1-PDC complex spheroid viability;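 further: spheroids exposed to the agents for seven days; 100% = DMSO vehicle control viability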
- protocol text: Anticancer human tumor 156681-154-R-J1-PDC patient-derived melanoma cell line growth inhibition [CLK]
- condition notes: second compound 0.316 µM; first compound 3.16 µM; active compounds read low
Answers are plain numbers, in %.

Record excerpt, results attached:
C#Cc1c(F)ccc2cc(O)cc(-c3ncc4c(N5CC6CCC(C5)N6)nc(OCC56CCCN5CC(F)C6)nc4c3F)c12 (centres undefined) + CN1CCN(c2cc(C(=O)Nc3cc4cc(-c5cnn(C)c5)ccc4cn3)ccn2)CC1
31.9
COc1cccc2c1C(=O)c1c(O)c3c(c(O)c1C2=O)CC(O)(C(=O)CO)CC3OC1CC(N)C(O)C(C)O1 (centres undefined) + CN1CCN(c2cc(C(=O)Nc3cc4cc(-c5cnn(C)c5)ccc4cn3)ccn2)CC1
0.2
CC1COCCN1c1cc(C2(S(C)(=N)=O)CC2)nc(-c2ccnc3[nH]ccc23)n1 (centres undefined) + CNC(=O)c1ccc(Nc2nc(OC3CCCC3)c3c(-c4ccc5nc(C)oc5c4)c[nH]c3n2)c(OC)c1
24.8
CC(Nc1ccc2c(c1)OCCn1cc(N3C(=O)OCC3C(F)F)nc1-2)C(N)=O (centres undefined) + CN1CCN(c2cc(C(=O)Nc3cc4cc(-c5cnn(C)c5)ccc4cn3)ccn2)CC1
4.44
O=C(c1cc(Cc2n[nH]c(=O)c3ccccc23)ccc1F)N1CCN(C(=O)C2CC2)CC1 + CNC(=O)c1ccc(Nc2nc(OC3CCCC3)c3c(-c4ccc5nc(C)oc5c4)c[nH]c3n2)c(OC)c1
70.3
CC1COCCN1c1cc(C2(S(C)(=N)=O)CC2)nc(-c2ccnc3[nH]ccc23)n1 (centres undefined) + CN1CCN(c2cc(C(=O)Nc3cc4cc(-c5cnn(C)c5)ccc4cn3)ccn2)CC1
9.6

Could you tell me viability, T/C for each of these compounds? They are listed below.
1. CCCS(=O)(=O)Nc1ccc(F)c(C(=O)c2c[nH]c3ncc(-c4ccc(Cl)cc4)cc23)c1F + CNC(=O)c1ccc(Nc2nc(OC3CCCC3)c3c(-c4ccc5nc(C)oc5c4)c[nH]c3n2)c(OC)c1
2. O=c1[nH]cc(F)c(=O)[nH]1 + CN1CCN(c2cc(C(=O)Nc3cc4cc(-c5cnn(C)c5)ccc4cn3)ccn2)CC1
3. Nc1ccccc1NC(=O)c1ccc(CNC(=O)OCc2cccnc2)cc1 + CNC(=O)c1ccc(Nc2nc(OC3CCCC3)c3c(-c4ccc5nc(C)oc5c4)c[nH]c3n2)c(OC)c1

Given back:
1. 46.1
2. 20.4
3. 4.74

Could you tell me viability, T/C for each of these compounds? They are listed below.
1. C=CC(=O)N1CCN(c2nc(=O)n(-c3c(C)ccnc3C(C)C)c3nc(-c4c(O)cccc4F)c(F)cc23)C(C)C1 (centres undefined) + CNC(=O)c1ccc(Nc2nc(OC3CCCC3)c3c(-c4ccc5nc(C)oc5c4)c[nH]c3n2)c(OC)c1
2. COC1C=CCC(C)C(C)S(=O)(=O)NC(=O)c2ccc3c(c2)N(CC2CCC21)CC1(CCCc2cc(Cl)ccc21)CO3 (centres undefined) + CNC(=O)c1ccc(Nc2nc(OC3CCCC3)c3c(-c4ccc5nc(C)oc5c4)c[nH]c3n2)c(OC)c1
3. CC(Nc1ccc2c(c1)OCCn1cc(N3C(=O)OCC3C(F)F)nc1-2)C(N)=O (centres undefined) + CNC(=O)c1ccc(Nc2nc(OC3CCCC3)c3c(-c4ccc5nc(C)oc5c4)c[nH]c3n2)c(OC)c1
4. Nc1ccccc1NC(=O)c1ccc(CNC(=O)OCc2cccnc2)cc1 + CN1CCN(c2cc(C(=O)Nc3cc4cc(-c5cnn(C)c5)ccc4cn3)ccn2)CC1
5. CC1(C)CCC(CN2CCN(c3ccc(C(=O)NS(=O)(=O)c4ccc(NCC5CCOCC5)c([N+](=O)[O-])c4)c(Oc4cnc5[nH]ccc5c4)c3)CC2)=C(c2ccc(Cl)cc2)C1 + CNC(=O)c1ccc(Nc2nc(OC3CCCC3)c3c(-c4ccc5nc(C)oc5c4)c[nH]c3n2)c(OC)c1

Given back:
1. 65.6
2. 5.31
3. 24.6
4. 1.03
5. 51.2
